System: Escherichia coli TOP10
Test: shrunken log2 fold change of peptide-encoding DNA abundance (4.5 h post-induction vs induction); higher = less antimicrobial activity (less host growth inhibition)
Settings: time post-induction: 4.5 h; library: site-saturation at positions 5, 18, 19, 20
Consider the following partition of reported shrunken log2 fold change into named classes: I: < -0.03; II: ≥ -0.03 and < 0.1; III: ≥ 0.1

# seqText, classAssignment
records = [
    ("RRIRDRPPRLPRPRPRPGTQPRP", "II"),
    ("RRIRDRPPRLPRPRPRPMCQPRP", "II"),
    ("RRIRTRPPRLPRPRPRPGENPRP", "III"),
    ("RRIRGRPPRLPRPRPRPVCFPRP", "III"),
    ("RRIRVRPPRLPRPRPRPRSCPRP", "II"),
    ("RRIRRRPPRLPRPRPRPVRAPRP", "III"),
    ("RRIRERPPRLPRPRPRPFSTPRP", "I"),
    ("RRIRHRPPRLPRPRPRPPYLPRP", "I"),
    ("RRIRYRPPRLPRPRPRPNMRPRP", "III"),
    ("RRIRNRPPRLPRPRPRPNFWPRP", "II"),
    ("RRIRRRPPRLPRPRPRPVGEPRP", "III"),
    ("RRIRKRPPRLPRPRPRPPQPPRP", "III"),
    ("RRIRSRPPRLPRPRPRPNSFPRP", "I"),
    ("RRIRYRPPRLPRPRPRPIGNPRP", "III"),
    ("RRIRMRPPRLPRPRPRPHSKPRP", "I"),
    ("RRIRIRPPRLPRPRPRPHRFPRP", "I"),
    ("RRIRRRPPRLPRPRPRPKTVPRP", "III"),
    ("RRIRHRPPRLPRPRPRPYVQPRP", "I"),
    ("RRIRMRPPRLPRPRPRPYERPRP", "I"),
    ("RRIRDRPPRLPRPRPRPLVPPRP", "III"),
    ("RRIRSRPPRLPRPRPRPPRLPRP", "III"),
    ("RRIRIRPPRLPRPRPRPECLPRP", "II"),
    ("RRIRLRPPRLPRPRPRPTGLPRP", "III"),
    ("RRIRKRPPRLPRPRPRPEHFPRP", "II"),
    ("RRIRSRPPRLPRPRPRPHECPRP", "II"),
    ("RRIRHRPPRLPRPRPRPEPTPRP", "III"),
    ("RRIRCRPPRLPRPRPRPATNPRP", "III"),
    ("RRIRDRPPRLPRPRPRPESRPRP", "II"),
    ("RRIRIRPPRLPRPRPRPWFQPRP", "II"),
    ("RRIRRRPPRLPRPRPRPCMMPRP", "I"),
    ("RRIRPRPPRLPRPRPRPKSGPRP", "III"),
    ("RRIRFRPPRLPRPRPRPFEFPRP", "I"),
    ("RRIRTRPPRLPRPRPRPVYDPRP", "I"),
    ("RRIRTRPPRLPRPRPRPASKPRP", "I"),
    ("RRIRCRPPRLPRPRPRPGDIPRP", "III"),
    ("RRIRRRPPRLPRPRPRPYNVPRP", "I"),
    ("RRIRGRPPRLPRPRPRPRNSPRP", "III"),
    ("RRIRRRPPRLPRPRPRPYGVPRP", "II"),
    ("RRIRIRPPRLPRPRPRPAQGPRP", "III"),
    ("RRIRSRPPRLPRPRPRPWQIPRP", "II"),
    ("RRIRNRPPRLPRPRPRPIQTPRP", "II"),
    ("RRIRERPPRLPRPRPRPRDVPRP", "II"),
    ("RRIRCRPPRLPRPRPRPYHAPRP", "I"),
    ("RRIRDRPPRLPRPRPRPNKLPRP", "I"),
    ("RRIRLRPPRLPRPRPRPHGMPRP", "I"),
    ("RRIRPRPPRLPRPRPRPNKGPRP", "I"),
    ("RRIRSRPPRLPRPRPRPLRGPRP", "III"),
    ("RRIRTRPPRLPRPRPRPDMQPRP", "III"),
    ("RRIRERPPRLPRPRPRPVMVPRP", "III"),
    ("RRIRCRPPRLPRPRPRPDDFPRP", "II"),
    ("RRIRGRPPRLPRPRPRPQQEPRP", "II"),
    ("RRIRWRPPRLPRPRPRPSENPRP", "I"),
    ("RRIRMRPPRLPRPRPRPFSHPRP", "II"),
    ("RRIRARPPRLPRPRPRPVYDPRP", "II"),
    ("RRIRWRPPRLPRPRPRPQSRPRP", "III"),
    ("RRIRPRPPRLPRPRPRPGALPRP", "III"),
    ("RRIRIRPPRLPRPRPRPEWPPRP", "II"),
    ("RRIRCRPPRLPRPRPRPNVCPRP", "II"),
    ("RRIRWRPPRLPRPRPRPKWVPRP", "II"),
    ("RRIRQRPPRLPRPRPRPMYCPRP", "I"),
    ("RRIRDRPPRLPRPRPRPWHKPRP", "I"),
    ("RRIRPRPPRLPRPRPRPHHIPRP", "I"),
]

###

Tested on: Escherichia coli TOP10
Experiment: shrunken log2 fold change of peptide-encoding DNA abundance (4.5 h post-induction vs induction); higher = less antimicrobial activity (less host growth inhibition)
Conditions: time post-induction: 4.5 h; library: site-saturation at positions 5, 18, 19, 20

# seqText, shrunken log2 fold change
records = [
    ("RRIRRRPPRLPRPRPRPKQDPRP", 0.38),
    ("RRIRFRPPRLPRPRPRPWLNPRP", -0.189),
    ("RRIRERPPRLPRPRPRPYGCPRP", -0.105),
    ("RRIRYRPPRLPRPRPRPTQWPRP", 0.413),
    ("RRIRSRPPRLPRPRPRPVWKPRP", -0.1),
    ("RRIRPRPPRLPRPRPRPLAAPRP", 0.767),
    ("RRIRWRPPRLPRPRPRPFQEPRP", -0.0827),
    ("RRIRYRPPRLPRPRPRPHILPRP", -0.288),
    ("RRIRMRPPRLPRPRPRPHGAPRP", 0.0098),
    ("RRIRNRPPRLPRPRPRPDRMPRP", -0.282),
    ("RRIRVRPPRLPRPRPRPMDCPRP", -0.0385),
    ("RRIRERPPRLPRPRPRPYDAPRP", 0.835),
    ("RRIRKRPPRLPRPRPRPMGGPRP", 0.0559),
    ("RRIRLRPPRLPRPRPRPWWQPRP", -0.179),
    ("RRIRTRPPRLPRPRPRPHTQPRP", -0.0664),
]

###

shrunken log2 fold change by entry:
System: Escherichia coli TOP10
Assay: shrunken log2 fold change of peptide-encoding DNA abundance (4.5 h post-induction vs induction); higher = less antimicrobial activity (less host growth inhibition)
Settings: time post-induction: 4.5 h; library: site-saturation at positions 5, 18, 19, 20
observable: shrunken log2 fold change

# seqText, measurement
data = [
    ("RRIRWRPPRLPRPRPRPMFGPRP", -0.0457),
    ("RRIRCRPPRLPRPRPRPINSPRP", -0.389),
    ("RRIRFRPPRLPRPRPRPVQEPRP", 0.0623),
    ("RRIRLRPPRLPRPRPRPSQPPRP", -0.0367),
    ("RRIRARPPRLPRPRPRPGIFPRP", 0.468),
    ("RRIRARPPRLPRPRPRPEGTPRP", 0.251),
    ("RRIRARPPRLPRPRPRPVGVPRP", 0.528),
    ("RRIRHRPPRLPRPRPRPTISPRP", -0.495),
    ("RRIRMRPPRLPRPRPRPFCMPRP", -0.33),
    ("RRIRFRPPRLPRPRPRPPLVPRP", 0.23),
    ("RRIRMRPPRLPRPRPRPQKAPRP", 0.0203),
    ("RRIRLRPPRLPRPRPRPPEGPRP", 0.662),
    ("RRIRPRPPRLPRPRPRPARGPRP", 0.606),
    ("RRIRFRPPRLPRPRPRPRWVPRP", 0.191),
    ("RRIRLRPPRLPRPRPRPDRWPRP", -0.0824),
]

###

Tested on: Escherichia coli TOP10;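 further: peptides expressed intracellularly from a pBAD plasmid library in pooled LB shake-flask culture, induced with 0.3% L-arabinose, DNA abundance read by NGS, three biological replicates, DESeq2 with apeglm shrinkage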
Test: shrunken log2 fold change of peptide-encoding DNA abundance (4.5 h post-induction vs induction); higher = less antimicrobial activity (less host growth inhibition)
Conditions: time post-induction: 4.5 h; library: site-saturation at positions 5, 18, 19, 20
# binarize shrunken log2 fold change: threshold -0.01 inclusive, high side Yes, low side No

# seqText, classAssignment
records = [
    ("RRIRSRPPRLPRPRPRPYLKPRP", "No"),
    ("RRIRSRPPRLPRPRPRPHNWPRP", "No"),
    ("RRIRHRPPRLPRPRPRPESGPRP", "No"),
    ("RRIRARPPRLPRPRPRPCPMPRP", "No"),
    ("RRIRYRPPRLPRPRPRPSDHPRP", "No"),
    ("RRIRMRPPRLPRPRPRPFCAPRP", "Yes"),
    ("RRIRNRPPRLPRPRPRPRDSPRP", "Yes"),
    ("RRIRDRPPRLPRPRPRPNTHPRP", "No"),
    ("RRIRRRPPRLPRPRPRPQWCPRP", "Yes"),
    ("RRIRMRPPRLPRPRPRPACQPRP", "Yes"),
    ("RRIRFRPPRLPRPRPRPVYSPRP", "No"),
    ("RRIRARPPRLPRPRPRPPFRPRP", "Yes"),
    ("RRIRVRPPRLPRPRPRPRMWPRP", "Yes"),
    ("RRIRKRPPRLPRPRPRPVLDPRP", "Yes"),
    ("RRIRFRPPRLPRPRPRPNYEPRP", "No"),
    ("RRIRQRPPRLPRPRPRPNFIPRP", "No"),
    ("RRIRIRPPRLPRPRPRPCFDPRP", "No"),
    ("RRIRKRPPRLPRPRPRPSWHPRP", "No"),
    ("RRIRWRPPRLPRPRPRPMMIPRP", "No"),
    ("RRIRSRPPRLPRPRPRPHCTPRP", "No"),
    ("RRIRQRPPRLPRPRPRPYSPPRP", "No"),
    ("RRIRPRPPRLPRPRPRPWAHPRP", "Yes"),
    ("RRIRSRPPRLPRPRPRPIVGPRP", "Yes"),
    ("RRIRNRPPRLPRPRPRPVKTPRP", "No"),
    ("RRIRMRPPRLPRPRPRPMSLPRP", "No"),
    ("RRIRCRPPRLPRPRPRPKLCPRP", "Yes"),
    ("RRIRKRPPRLPRPRPRPIAYPRP", "No"),
    ("RRIRVRPPRLPRPRPRPLMQPRP", "No"),
    ("RRIRQRPPRLPRPRPRPNRSPRP", "No"),
    ("RRIRWRPPRLPRPRPRPNHCPRP", "No"),
    ("RRIRSRPPRLPRPRPRPITMPRP", "No"),
    ("RRIRVRPPRLPRPRPRPHNAPRP", "No"),
]

// provenance: the supplement of paper PMC9112550
